# Tested on: 777334-354-R2-J4-PDC tumor spheroids with HUVEC/MSC, viability;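 further: spheroids exposed to compounds for 7 days before readout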
# Assay Overview: Anticancer human tumor 777334-354-R2-J4-PDC patient-derived pancreatic adenocarcinoma cell line growth inhibition [GQUAD]
# Condition Context: second compound 1 µM; first compound 0.0316 µM; stronger effect = lower value

{"columns": ["Molecule", "viability, T/C, %"],
 "data": [
  ["COc1ncnc(C2CC2)c1-c1ncc2cnn(Cc3ccc(-c4nc(C(F)(F)F)cn4C(C)C)cc3)c2n1 + Cc1[nH]c2ccc(F)cc2c1-c1nc2c3cccnc3c3ncccc3c2[nH]1", 81.9],
  ["CCCS(=O)(=O)Nc1ccc(F)c(C(=O)c2c[nH]c3ncc(-c4ccc(Cl)cc4)cc23)c1F + CN(C)c1ccc(Nc2c3ccc(NC(=O)CCN4CCCC4)cc3nc3cc(NC(=O)CCN4CCCC4)ccc23)cc1", 92.4],
  ["O=c1[nH]cc(F)c(=O)[nH]1 + Cc1[nH]c2ccc(F)cc2c1-c1nc2c3cccnc3c3ncccc3c2[nH]1", 74.7],
  ["O=c1[nH]cc(F)c(=O)[nH]1 + CN(C)c1ccc(Nc2c3ccc(NC(=O)CCN4CCCC4)cc3nc3cc(NC(=O)CCN4CCCC4)ccc23)cc1", 99.3],
  ["C=CCn1c(=O)c2cnc(Nc3ccc(N4CCN(C)CC4)cc3)nc2n1-c1cccc(C(C)(C)O)n1 + Cc1cnc(CNC(=O)c2c(=O)c3ccc(N4CCCN(C)CC4)nc3n3c2sc2ccccc23)cn1", 65.2]
]}
